molecular target: human serum albumin (HSA) in human plasma (Homo sapiens, UniProt P02768); test: Ultrafiltration albumin-binding assay of 177Lu-RedFols, human plasma; details: human blood plasma; inverse B50 ratio, normalized to the respective (6R or 6S) RedFol-1, set as 1.0
Sequence (P02768 25-609): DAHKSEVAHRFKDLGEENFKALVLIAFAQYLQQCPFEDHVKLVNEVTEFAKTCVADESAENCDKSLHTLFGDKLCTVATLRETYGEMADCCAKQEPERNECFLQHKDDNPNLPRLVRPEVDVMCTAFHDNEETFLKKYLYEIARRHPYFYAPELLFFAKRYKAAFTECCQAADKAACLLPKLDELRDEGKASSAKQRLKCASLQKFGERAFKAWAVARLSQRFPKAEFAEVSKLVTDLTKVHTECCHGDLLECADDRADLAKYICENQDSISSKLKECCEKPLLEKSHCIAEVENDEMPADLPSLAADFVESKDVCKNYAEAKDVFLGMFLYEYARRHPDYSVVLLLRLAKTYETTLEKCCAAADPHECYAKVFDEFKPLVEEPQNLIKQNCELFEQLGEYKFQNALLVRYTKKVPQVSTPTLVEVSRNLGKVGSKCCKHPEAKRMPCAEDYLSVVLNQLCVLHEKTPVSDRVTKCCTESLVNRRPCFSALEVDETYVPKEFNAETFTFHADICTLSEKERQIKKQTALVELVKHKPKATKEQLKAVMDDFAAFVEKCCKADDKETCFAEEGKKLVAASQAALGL
metric: Relative albumin-binding affinity

# compound, metric, measured.number
measured = [
    ("CN1c2c(nc(N)[nH]c2=O)NC[C@H]1CNc1ccc(C(=O)N[C@@H](CCC(=O)N[C@@H](CCCCNC(=O)CN2CCN(CC(=O)O)CCN(CC(=O)O)CCN(CC(=O)O)CC2)C(=O)N[C@@H](CCCCNC(=O)c2ccc(CNC(=O)CCCc3ccc(I)cc3)cc2)C(=O)O)C(=O)O)cc1 [[^177Lu]Lu-6R-RedFol-3, metal not drawn]", "Relative albumin-binding affinity", 1.1),
    ("CN1c2c(nc(N)[nH]c2=O)NC[C@H]1CNc1ccc(C(=O)N[C@@H](CCC(=O)N[C@@H](CCCCNC(=O)CN2CCN(CC(=O)O)CCN(CC(=O)O)CCN(CC(=O)O)CC2)C(=O)N[C@@H](CCCCNC(=O)c2ccc(CNC(=O)CCCCc3ccc(I)cc3)cc2)C(=O)O)C(=O)O)cc1 [[^177Lu]Lu-6R-RedFol-25, metal not drawn]", "Relative albumin-binding affinity", 0.5),
    ("CN1c2c(nc(N)[nH]c2=O)NC[C@H]1CNc1ccc(C(=O)N[C@@H](CCC(=O)N[C@@H](CCCCNC(=O)CN2CCN(CC(=O)O)CCN(CC(=O)O)CCN(CC(=O)O)CC2)C(=O)N[C@@H](CCCCNC(=O)CCCCc2ccc(I)cc2)C(=O)O)C(=O)O)cc1 [[^177Lu]Lu-6R-RedFol-24, metal not drawn]", "Relative albumin-binding affinity", 0.5),
    ("CN1c2c(nc(N)[nH]c2=O)NCC1CNc1ccc(C(=O)NC(CCC(=O)NC(CCCCNC(=O)CN2CCN(CC(=O)[O-])CCN(CC(=O)[O-])CCN(CC(=O)[O-])CC2)C(=O)NC(CCCCNC(=O)CCCc2ccc(I)cc2)C(=O)O)C(=O)O)cc1.[177Lu+3] (stereo not drawn) [[^177Lu]Lu-6S-RedFol-1]", "Relative albumin-binding affinity", 1.0),
    ("CN1c2c(nc(N)[nH]c2=O)NCC1CNc1ccc(C(=O)NC(CCC(=O)NC(CCCCNC(=O)CN2CCN(CC(=O)[O-])CCN(CC(=O)[O-])CCN(CC(=O)[O-])CC2)C(=O)NC(CCCCNC(=O)c2ccc(CNC(=O)CCCCc3ccc(I)cc3)cc2)C(=O)O)C(=O)O)cc1.[177Lu+3] (stereo not drawn) [[^177Lu]Lu-6S-RedFol-25]", "Relative albumin-binding affinity", 0.2),
]
